From: ChEMBL document CHEMBL1201862

# Tested on: Malme-3M
# Method summary: NCI tumour cell line growth inhibition, 48 h
The source made the active and inactive calls. No stated cut-off is given here; in the data, active = GI50 up to about 1.1 µM and inactive = higher.
Parameter: GI50

Inquiry: # query: GI50 of entry CCOC(=O)C1=C(NC)OCC1=O
Reply text: > 100 µM (inactive)

Inquiry: # query: GI50 of entry O=S(=O)(O)c1ccc(NN(c2c(O)ccc3ccccc23)S(=O)(=O)O)cc1
Reply text: > 100 µM (inactive)

Inquiry: Can you share its GI50? I mean this molecule: O=C(O)C(Cc1ccc2c(c1)CCC2)(Cc1ccc2c(c1)CCC2)C(=O)O
Reply text: > 100 µM (inactive)

Inquiry: For the molecule O=C(N/N=C/c1ccc([N+](=O)[O-])o1)c1ccc(C(=O)N/N=C/c2ccc([N+](=O)[O-])o2)cc1 , what GI50 is on record?
Reply text: 21.2 µM (inactive)

Inquiry: Which GI50 is listed for O=c1[nH]nc(Cc2ccc(Cl)cc2)n1/N=C/c1c[nH]c2ccccc12 ?
Reply text: > 100 µM (inactive)

Inquiry: Can you share its GI50? I mean this molecule: NC(=O)NC(=O)c1ccc(NC(=O)CBr)cc1
Reply text: 1.54 µM (inactive)

Inquiry: Look up GI50: CC(=O)NC1C(OCc2ccccc2)OC(CO)C(O)C1OCC(=O)N[C@@H](C)C(=O)N[C@H](CCC(=O)NCCNCCNc1c2ccccc2nc2cccc([N+](=O)[O-])c12)C(N)=O (stereo partly drawn)
Reply text: 19.2 µM (inactive)

Inquiry: Entry under review: NC(=S)Nc1ccc(S(=O)(=O)Nc2ccc(S(N)(=O)=O)cc2)cc1 . Reported GI50?
Reply text: > 100 µM (inactive)

Inquiry: # input molecule: C=C(C)C1CC2=C(C(=O)OC)C=C(O2)C(C(=C)C)[C@@H]2OC(=O)/C(=C\C1O)[C@H]2N(C)C (stereo partly drawn) ; wanted: its GI50
Reply text: 12.9 µM (inactive)

Inquiry: Item COC(=O)C(Cc1c[nH]c2ccccc12)NC1=Nc2ccncc2S(=O)(=O)N1c1ccccc1 (stereo not drawn) has what recorded GI50?
Reply text: 19 µM (inactive)

Inquiry: Bench note: what GI50 did O=C(O)c1cc(O)nc(S)n1 show?
Reply text: > 100 µM (inactive)

---

# Tested on: NCI-H226
# Method summary: NCI tumour cell line growth inhibition, 48 h
Active and inactive are the calls of the source. Cut-off read from the data, not from the text of the source: active = GI50 up to about 1.1 µM and inactive = higher.
The reply should be one of these categories: Yes = active, No = inactive

Solved entries (count: 8):
In [3]: df
Out[3]:
                                   compound  target_under_test  cat
0  Cc1cc2[nH]c(Cl)c(/C=C3\C(=O)Nc4ccccc43)c2cc1O           NCI-H226  Yes
1                    CCOC(=O)C1=C(NC)OCC1=O           NCI-H226   No
2  COC(=O)C(C(=O)C(=O)Nc1c(C)cccc1C(C)(C)C)c1nc2ccc(Cl)cc2nc1O (centres undefined)           NCI-H226   No
3  Cc1ccc2c(c1)C(c1cccc3ccccc13)OC2=O (centres undefined)           NCI-H226   No
4  O=C(N/N=C/c1ccc([N+](=O)[O-])o1)c1ccc(C(=O)N/N=C/c2ccc([N+](=O)[O-])o2)cc1           NCI-H226   No
5  CCCC(=O)Nc1cn(COC)c(C(=O)N2C[C@H]3C[C@@]34C2=CC(=O)c2[nH]cc(C)c24)n1           NCI-H226   No
6     Cn1cc2c(n1)c(N/N=C/c1ccccc1)nn1nnnc21           NCI-H226   No
7  O=C(N/N=C\c1ccc2ccccc2c1)Nc1ccc([N+](=O)[O-])cc1           NCI-H226   No

// next entry
Inquiry: I'd appreciate the recorded outcome for CCOc1ccc(C2=C(Cl)c3cc(OC)c(OC)cc3C2Cl)cc1 (centres undefined) from this test.
Reply text: No
